All figures here come from patent US8354545B2.

Target or system UniProtKB P56817; recorded quantity IC50.
Sequence (P56817 46-457 limits assumed): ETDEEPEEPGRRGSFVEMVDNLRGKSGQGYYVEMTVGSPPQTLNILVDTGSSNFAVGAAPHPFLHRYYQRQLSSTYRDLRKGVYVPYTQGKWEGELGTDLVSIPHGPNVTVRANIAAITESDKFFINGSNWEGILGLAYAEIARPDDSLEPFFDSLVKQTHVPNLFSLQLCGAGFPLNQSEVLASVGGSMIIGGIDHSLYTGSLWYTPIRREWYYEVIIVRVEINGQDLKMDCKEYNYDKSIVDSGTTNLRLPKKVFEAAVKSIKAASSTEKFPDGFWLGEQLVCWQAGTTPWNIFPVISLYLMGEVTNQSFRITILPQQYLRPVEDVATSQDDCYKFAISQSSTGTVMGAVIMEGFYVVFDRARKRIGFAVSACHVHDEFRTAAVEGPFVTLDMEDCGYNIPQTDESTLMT
One number for each entry, in nM.

Solved cases (3 shown):
O=C([C@@H]1CNC[C@H]1c1ccccc1Br)N1CCC2(C=Cc3ccccc32)CC1c1ccccc1 (stereo partly shown) = 1800
CS(=O)(=O)c1ccc(-c2ccccc2[C@@H]2CNC[C@H]2C(=O)N2CCC(c3ccccc3)CC2c2ccccc2)cc1 (stereo partly shown) = 3500
CS(=O)(=O)c1ccc(-c2ccccc2[C@@H]2CNC[C@H]2C(=O)N2CCC3(C=Cc4ccccc43)CC2c2ccccc2)cc1 (stereo partly shown) = 380

Could you now look at the following molecule, please?
Prompt: Answer with the recorded IC50 for the molecule listed here: CCOc1ccc(-c2ccccc2[C@@H]2CNC[C@H]2C(=O)N2CCOC[C@@H]2c2ccccc2)cc1
Response: 18000
